# experimental system: Amine oxidase [flavin-containing] A (Homo sapiens, UniProt P21397)
# Sequence (P21397 whole entry): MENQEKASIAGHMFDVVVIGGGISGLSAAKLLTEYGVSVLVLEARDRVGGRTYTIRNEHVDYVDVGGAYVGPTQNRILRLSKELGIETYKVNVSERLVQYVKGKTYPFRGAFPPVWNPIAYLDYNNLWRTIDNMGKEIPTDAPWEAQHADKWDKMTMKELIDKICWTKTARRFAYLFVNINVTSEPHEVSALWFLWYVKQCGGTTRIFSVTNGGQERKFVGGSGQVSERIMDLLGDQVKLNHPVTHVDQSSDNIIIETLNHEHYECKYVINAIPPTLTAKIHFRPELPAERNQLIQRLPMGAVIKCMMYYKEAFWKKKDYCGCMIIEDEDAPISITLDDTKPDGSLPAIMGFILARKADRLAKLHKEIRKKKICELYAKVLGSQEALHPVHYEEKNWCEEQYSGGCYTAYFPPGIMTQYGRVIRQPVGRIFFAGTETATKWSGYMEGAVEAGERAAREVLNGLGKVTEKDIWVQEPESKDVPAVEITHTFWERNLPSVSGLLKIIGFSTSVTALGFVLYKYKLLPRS
# assay comment: Turnover number (TN) for human mono-amine oxidase MAO-A
recorded endpoint: TN

Entry CN1CC=C(Cc2ccc3ccccc3c2)CC1 has what TN?
121 M min-1 M-1

Please report the recorded TN for CN1CC=C(Oc2ccc(-c3ccccc3)cc2)CC1 .
173 M min-1 M-1

Returns the measured TN for the input compound. Input: CN1CC=C(Oc2ccc(Cl)cc2Cl)CC1
95 M min-1 M-1

State the recorded TN for this entry: CN1CC=C(Oc2cc3ccccc3c3ccccc23)CC1
59 M min-1 M-1

Look at this compound and give its reported TN. CN1CC=C(Cc2ccccc2)CC1
9 M min-1 M-1

Sample CN1CC=C(Oc2ccccc2)CC1 — what was its TN?
130 M min-1 M-1

// lookup TN for CN1CC=C(Oc2cccc3ccccc23)CC1
227 M min-1 M-1

Fill in: TN of CN1CC=C(Oc2ccc(C(C)(C)C)cc2)CC1 is ___
111 M min-1 M-1

Reported TN, compound CN1CC=C(c2ccccc2)CC1 : ____
20 M min-1 M-1

Consider the compound CN1CC=C(Oc2ccc3ccccc3c2)CC1 and give its measured TN.
207 M min-1 M-1

Looking for the measured TN of CCCCc1ccc(OC2=CCN(C)CC2)cc1 , can you help?
85 M min-1 M-1

For the compound NCCC(=O)c1ccccc1N [KYNURAMINE] , what TN is on record?
146 M min-1 M-1

# query: TN of entry CN1CC=C(Cc2cccc3ccccc23)CC1
433 M min-1 M-1

Which TN reading was recorded for the compound CN1CC=C(Cc2cc3ccccc3c3ccccc23)CC1 ?
365 M min-1 M-1

These measurements were taken from ChEMBL document CHEMBL1127689.
